Target: Alpha-2A adrenergic receptor (Homo sapiens) (UniProt P08913)
Sequence (whole entry): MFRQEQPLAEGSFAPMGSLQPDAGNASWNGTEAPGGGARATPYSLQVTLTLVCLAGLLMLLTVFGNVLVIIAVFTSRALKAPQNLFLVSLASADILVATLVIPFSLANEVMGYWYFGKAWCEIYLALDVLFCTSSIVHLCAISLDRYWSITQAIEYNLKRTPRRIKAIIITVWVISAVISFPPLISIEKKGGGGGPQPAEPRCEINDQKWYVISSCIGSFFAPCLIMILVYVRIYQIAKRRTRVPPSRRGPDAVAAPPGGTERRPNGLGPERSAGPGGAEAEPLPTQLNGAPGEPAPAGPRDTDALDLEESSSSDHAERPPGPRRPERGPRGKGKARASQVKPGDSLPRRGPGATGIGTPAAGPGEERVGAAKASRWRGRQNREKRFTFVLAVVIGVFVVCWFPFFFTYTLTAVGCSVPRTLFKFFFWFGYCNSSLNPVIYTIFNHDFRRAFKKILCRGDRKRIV
Settings: Compound concentration 10 µM
Description: PDSP Primary Binding target: ADRA2A - Compounds are tested at 10 uM concentration, plate are incubated at room temperature in the dark for 90 minutes. Reaction are stopped by vacuum filtration onto 0.3% polyethyleneimine soaked filter mats using Filtermate harvester. Scintilation cocktail is then melted onto microwave-dried filters on a hot plate and the radio activity is counted in Microbia counter.
property-name: inhibition (%)
Field: numeric (%). Do not append units.

Solved cases (5 shown):
# structure-notation, inhibition (%)
records = [
    ("Cc1nnn(-c2ccc(-c3ccc(C4(C(=O)O)CC4)cc3)cc2)c1NC(=O)O[C@H](C)c1ccccc1", 0.57),
    ("COc1cc2c(CCNC(C)=O)c[nH]c2cc1Cl", 13.4),
    ("COC(=O)[C@H]1[C@H]2C[C@H]3c4[nH]c5ccccc5c4CCN3C[C@H]2CC[C@@H]1O", 98.3),
    ("C[C@H](Cc1cc2c(c(C(N)=O)c1)N(CCCO)CC2)NCCOc1ccccc1OCC(F)(F)F", 84.6),
    ("O=C(O)c1n[nH]c2c1C[C@H]1C[C@@H]21", 8.74),
]

# inhibition lookup, item `Cc1nc(C#Cc2ccnc(Cl)c2)c(C)n1-c1ccc(OC(F)(F)F)cc1`
23.9

# query: inhibition of entry `CCc1ccc(OCc2ccccc2C(=O)Nc2ccc3nc(C)cc(N)c3c2)cc1`
42.2

Could you share which inhibition value was measured for `O=C(Nc1ccc(Cl)cc1)Nc1cccc(-c2cccc(N3CCCC3)n2)c1` ?
3.23

# input compound: `N#Cc1c(N)nc(SCc2csc(-c3ccc(Cl)cc3)n2)c(C#N)c1-c1ccc(OCCO)cc1` ; wanted: its inhibition
26.7

Form field: reported inhibition of `Cc1cn2cc(CC(=O)N3CCC4(CC3)CN(Cc3ccc(-n5nccn5)cc3Cl)C4)nc2s1`
9.33

Endpoint output: inhibition of `CN[C@@H]1CCc2[nH]c3ccc(C(N)=O)cc3c2C1` . Value?
31

Any idea what inhibition was measured for `C[C@@H](N)Cc1c[nH]cn1` ?
8.47

What value of measured inhibition is listed for `CC(C)C[C@H](NC(=O)N1CCCCCC1)C(=O)N[C@H](Cc1cn(C)c2ccccc12)C(=O)N[C@H](Cc1ccccn1)C(=O)O` ?
-6.57

Entry `O=C(Cc1ccccc1)Nc1nc2ccc(Cl)cc2c2nc(-c3ccco3)nn12` : reported inhibition = ?
3.62
